# test-target: human Keap1 kelch domain (amino acids Ala321-Thr609) (Homo sapiens)
# Construct: human Keap1 kelch domain (amino acids Ala321-Thr609)
# Sequence (Q14145 321-609): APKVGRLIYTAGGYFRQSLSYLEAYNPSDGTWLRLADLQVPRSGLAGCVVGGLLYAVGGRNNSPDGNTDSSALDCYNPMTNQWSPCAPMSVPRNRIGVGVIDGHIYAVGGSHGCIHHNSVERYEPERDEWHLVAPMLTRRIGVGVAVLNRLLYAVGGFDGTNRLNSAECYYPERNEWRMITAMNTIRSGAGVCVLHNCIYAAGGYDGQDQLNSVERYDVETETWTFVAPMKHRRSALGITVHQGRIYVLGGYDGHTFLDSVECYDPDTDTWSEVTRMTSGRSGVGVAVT
# procedure-details: Keap1-Nrf2 peptide binding assay (fluorescence polarisation)
# condition-context: binding to fluorescently labeled human Nrf2 peptide; 20 nM Keap1 kelch domain, 50 nM peptide
quantity-measured: IC50 (µM)
The reply should be a number in µM, with the unit left off.

A selection of reference data follows.
O=C(O)[C@H]1CCN(c2ccc(NS(=O)(=O)c3ccc(Cl)c(C(F)(F)F)c3)c3ccccc23)C1 [Example 23] : 8.5
Cc1ccc(Cl)cc1S(=O)(=O)Nc1ccc(N2CC[C@H](C(=O)O)C2)c2ccccc12 [Example 26] : 8.1
Cc1nn(-c2ccccc2)c(C)c1S(=O)(=O)Nc1ccc(N2CC[C@@H](C(=O)O)C2)c2ccccc12 [Example 42] : 3
Cc1ccc(Cl)cc1S(=O)(=O)Nc1ccc(N2CC[C@@H](C(=O)O)C2)c2ccccc12 [Example 43] : 1.2
Cc1c(S(=O)(=O)Nc2ccc(N3CC[C@@H](C(=O)O)C3)c3ncccc23)c2ccccc2n1C [Example 71] : 1.1
Cc1c(S(=O)(=O)Nc2ccc(N3CC[C@@H](C(=O)O)C3)c3ccccc23)cnn1CC(C)C [Example 49] : 2.9
O=C(O)[C@H]1CCN(c2ccc(NS(=O)(=O)c3cccc(Cl)c3Cl)c3ccccc23)C1 [Example 20] : 8.6
O=C(O)[C@@H]1CCN(c2ccc(NS(=O)(=O)c3cccc4c3OCCO4)c3ccccc23)C1 [Example 74] : 9.1
Cc1nn(C)c(C)c1S(=O)(=O)Nc1ccc(N2CC[C@@H](C(=O)O)C2)c2ccccc12 [Example 38] : 0.9
Cc1nc(C)c(S(=O)(=O)Nc2ccc(N3CC[C@H](C(=O)O)C3)c3ccccc23)s1 [Example 24] : 4.3

compound Cc1cc(C)c(C)c(S(=O)(=O)Nc2ccc(N3CCCC(C(=O)O)C3)c3ncccc23)c1C (stereo not shown) [Example 15] , IC50 observed: 24

response.value for O=C(O)[C@@H]1CCN(c2ccc(NS(=O)(=O)c3cc(F)cc(F)c3Cl)c3ccccc23)C1 [Example 46] (field: IC50) = 7.4

What the record says about CCCn1ncc(S(=O)(=O)Nc2ccc(N3CC[C@@H](C(=O)O)C3)c3ccccc23)c1C [Example 54] : IC50 is 1.8
